Target: Cytochrome P450 2B4dH(H226Y) (Oryctolagus cuniculus, UniProt P00178, H226Y)
Test: biochemical
Each entry below lists one item and its recorded Kd value.
Use µM as the unit, but write only the number.

Clc1ccccc1CN1CCc2sccc2C1
1.3

Exercise: Requested read-out Kd, target or system Cytochrome P450 2B4dH(H226Y) (Oryctolagus cuniculus, UniProt P00178, H226Y), entry COC(=O)[C@H](c1ccccc1Cl)N1CCc2sccc2C1
Key: 0.6

====

Biological target: P450 2B6 (Homo sapiens, UniProt P20813, D28G/E2A/H23K/H27K/N25S/P24T/R22K/R29K/T26S)
Assay: biochemical
readoutKind: Ki (µM)
Your answer is read as µM, so omit the unit and give the number.

Exercise: // Ki lookup, key: COC(=O)[C@H](c1ccccc1Cl)N1CCc2sccc2C1
Key: 0.1
